From: patent US10246453B2

MEASURED_TARGET: NaV1.1 (Homo sapiens (Human))
TEST_SUMMARY: Sodium Influx Assay (Flux), NaV1.1
Type: cell-based
CONDITION_NOTES: Trex HEK293 cells, ANG2 dye; arithmetic mean
pIC50: −log10 of the molar value. Where a name gives a salt, the structure may show the parent alone.
Tick MET if pIC50 is 5 or greater. Tick NOT MET if pIC50 is less than 5.

Completed entries (count: 5):
# COMPOUND, MEASURED_TARGET, ASSIGNED_CLASS
rows = [
    ("Cc1cccc(C)c1CN1CC[C@H](N(C)c2cc(F)c(S(=O)(=O)Nc3cscn3)cc2Cl)C1 [Example 203]", "NaV1.1 (Homo sapiens (Human))", "MET"),
    ("C[C@H]1C[C@H](N(C)c2cc(F)c(S(=O)(=O)Nc3cscn3)cc2Cl)CN1Cc1ccccc1 [Example 231, formate]", "NaV1.1 (Homo sapiens (Human))", "NOT MET"),
    ("O=S(=O)(Nc1ncns1)c1ccc(NC2CCN(Cc3ccccc3)C2)c(Cl)c1 (centres unmarked) [Example 26, trifluoroacetate]", "NaV1.1 (Homo sapiens (Human))", "NOT MET"),
    ("Cc1cc(S(=O)(=O)Nc2cscn2)c(F)cc1N(C)[C@H]1CCN(Cc2ccn(C(F)F)n2)C1 [Example 147]", "NaV1.1 (Homo sapiens (Human))", "NOT MET"),
    ("C[C@@]1(Nc2ccc(S(=O)(=O)Nc3cscn3)cc2Cl)CCN(Cc2ccccc2)C1 [Example 225, formate]", "NaV1.1 (Homo sapiens (Human))", "MET"),
]

For this compound, is measured pIC50 5 or higher? CN(c1cc(F)c(S(=O)(=O)Nc2cscn2)c(F)c1)[C@H]1CCN(Cc2ccccc2)C1 [Example 286, formate] MET

Determine whether measured pIC50 meets or exceeds 5 for O=S(=O)(Nc1nccs1)c1ccc(OC2CCN(C3CCc4ccccc43)CC2)c(Cl)c1 (centres unmarked) [Example 49, 2,2,2-trifluoroacetate] MET

Could you tell me if the measured pIC50 of Cc1c(N(C)[C@H]2CCN(Cc3ccccc3)C2)cc(F)c(S(=O)(=O)Nc2ncns2)c1F [Example 295] reaches 5 or more? NOT MET

Quick check, pIC50 >= 5? C[C@H](c1ccccc1)N1CCC(Oc2cc(F)c(S(=O)(=O)Nc3cscn3)c(F)c2)CC1 [Example 291, 2,2,2-trifluoroacetate] NOT MET

Determine whether measured pIC50 meets or exceeds 5 for CN(c1cc(F)c(S(=O)(=O)Nc2cscn2)cc1Cl)[C@H]1CCN(Cc2cc(Cl)ccc2Cl)C1 [Example 197] MET

Quick check, pIC50 >= 5? Cc1cc(S(=O)(=O)Nc2cscn2)c(F)cc1N(C)[C@H]1CCN(Cc2ccn(CC(F)F)n2)C1 [Example 153, 2,2,2-trifluoroacetate] NOT MET

====

MEASURED_TARGET: NaV1.6 (Homo sapiens (Human), UniProt Q9UQD0)
TEST_SUMMARY: Sodium Influx Assay (Flux), NaV1.6
CONDITION_NOTES: read-out: Flux NaV1.6 IC50; Trex HEK293 cells, ANG2 dye; arithmetic mean
pIC50: −log10 of the molar value. Counter-ions that a name gives are not always drawn.
Could you label it y if measured pIC50 is 6 or higher, and n otherwise?

Reference set (3 entries):
# MOLECULE, ASSIGNED_CLASS
measured = [
    ("O=S(=O)(Nc1cscn1)c1c(F)cc(OC2CCN(Cc3ccccc3)CC2)c(Cl)c1F [Example 105, formate]", "y"),
    ("O=S(=O)(Nc1cccc(F)n1)c1ccc(OC2CCN(Cc3ccccc3)CC2)c(Cl)c1 [Example 77, 2,2,2-trifluoroacetate]", "n"),
    ("C[C@H](c1ccccc1)N1CCC(N(C)c2cc(F)c(S(=O)(=O)Nc3cscn3)cc2Cl)CC1 [Example 280, formate]", "y"),
]

# check: pIC50 of Cc1c(N(C)[C@H]2CCN(Cc3cccc(C(F)(F)F)n3)C2)cc(F)c(S(=O)(=O)Nc2cscn2)c1F [Example 224, 2,2,2-trifluoroacetate] is greater than or equal to 6 y

Quick check: does Cc1cc(S(=O)(=O)Nc2cscn2)c(F)cc1N(C)[C@H]1CCN(Cc2ncccc2OC(C)C)C1 [Example 116, formate] have pIC50 greater than or equal to 6? y

Exam item: decide whether the reported pIC50 for Cc1cc(S(=O)(=O)Nc2cscn2)c(F)cc1N(C)[C@H]1CCN(Cc2cccc(C)c2F)C1 [Example 127, 2,2,2-trifluoroacetate] is at least 6. y

====

MEASURED_TARGET: NaV1.6 (Homo sapiens (Human))
TEST_SUMMARY: Sodium Influx Assay (Flux), NaV1.6
CONDITION_NOTES: read-out: Flux NaV1.6 IC50; Trex HEK293 cells, ANG2 dye; arithmetic mean
Counter-ions that a name gives are not always drawn.
# satisfied = IC50 below 2000 nM (exclusive); not satisfied = IC50 at/above 2000 nM

Take a look at these entries with their results.
# MOLECULE, ASSIGNED_CLASS
measured = [
    ("CN(c1cc(F)c(S(=O)(=O)Nc2cscn2)c(F)c1)[C@H]1CCN(Cc2cccc(C(F)F)c2)C1 [Example 287, 2,2,2-trifluoroacetate]", "not satisfied"),
    ("Cc1c(N(C)[C@H]2CCN(Cc3ccccc3F)C2)cc(F)c(S(=O)(=O)Nc2cscn2)c1F [Example 236, formate]", "satisfied"),
    ("C[C@H]1CN(Cc2ccccc2)C[C@@H]1Nc1ccc(S(=O)(=O)Nc2nccs2)cc1Cl (relative stereo)", "satisfied"),
    ("Cc1ccccc1CN1CCC(Oc2ccc(S(=O)(=O)Nc3nccs3)cc2Cl)CC1", "satisfied"),
    ("CC[C@@H](c1ccccc1Cl)N1CC[C@H](N(C)c2cc(F)c(S(=O)(=O)Nc3cscn3)cc2Cl)C1 [Example 248, 2,2,2-trifluoroacetate]", "not satisfied"),
]

Is IC50 strictly under 2000 nM for the entry `CN(c1cc(F)c(S(=O)(=O)Nc2cscn2)cc1Cl)[C@H]1CCN(Cc2cccc(C(F)(F)F)c2)C1` ? satisfied

Please indicate whether the reported IC50 of Cc1c(OC2CCN([C@H](C)c3ccccc3)CC2)cc(F)c(S(=O)(=O)Nc2cscn2)c1F [Example 282, 2,2,2-trifluoroacetate] is strictly below 2000 nM. satisfied

Is the reported IC50 for `Cc1cc(S(=O)(=O)Nc2cscn2)c(F)cc1N(C)[C@H]1CCN(Cc2ccc(O)cc2)C1` strictly below 2000 nM? not satisfied

I'd appreciate it if you could check whether `Cc1cc(CN2CC[C@H](N(C)c3cc(F)c(S(=O)(=O)Nc4cscn4)cc3Cl)C2)ccc1F` has IC50 smaller than 2000 nM. not satisfied

====

MEASURED_TARGET: NaV1.5 (Homo sapiens (Human))
Sequence (Q14524 other isoform, or with tags, fused parts or gaps): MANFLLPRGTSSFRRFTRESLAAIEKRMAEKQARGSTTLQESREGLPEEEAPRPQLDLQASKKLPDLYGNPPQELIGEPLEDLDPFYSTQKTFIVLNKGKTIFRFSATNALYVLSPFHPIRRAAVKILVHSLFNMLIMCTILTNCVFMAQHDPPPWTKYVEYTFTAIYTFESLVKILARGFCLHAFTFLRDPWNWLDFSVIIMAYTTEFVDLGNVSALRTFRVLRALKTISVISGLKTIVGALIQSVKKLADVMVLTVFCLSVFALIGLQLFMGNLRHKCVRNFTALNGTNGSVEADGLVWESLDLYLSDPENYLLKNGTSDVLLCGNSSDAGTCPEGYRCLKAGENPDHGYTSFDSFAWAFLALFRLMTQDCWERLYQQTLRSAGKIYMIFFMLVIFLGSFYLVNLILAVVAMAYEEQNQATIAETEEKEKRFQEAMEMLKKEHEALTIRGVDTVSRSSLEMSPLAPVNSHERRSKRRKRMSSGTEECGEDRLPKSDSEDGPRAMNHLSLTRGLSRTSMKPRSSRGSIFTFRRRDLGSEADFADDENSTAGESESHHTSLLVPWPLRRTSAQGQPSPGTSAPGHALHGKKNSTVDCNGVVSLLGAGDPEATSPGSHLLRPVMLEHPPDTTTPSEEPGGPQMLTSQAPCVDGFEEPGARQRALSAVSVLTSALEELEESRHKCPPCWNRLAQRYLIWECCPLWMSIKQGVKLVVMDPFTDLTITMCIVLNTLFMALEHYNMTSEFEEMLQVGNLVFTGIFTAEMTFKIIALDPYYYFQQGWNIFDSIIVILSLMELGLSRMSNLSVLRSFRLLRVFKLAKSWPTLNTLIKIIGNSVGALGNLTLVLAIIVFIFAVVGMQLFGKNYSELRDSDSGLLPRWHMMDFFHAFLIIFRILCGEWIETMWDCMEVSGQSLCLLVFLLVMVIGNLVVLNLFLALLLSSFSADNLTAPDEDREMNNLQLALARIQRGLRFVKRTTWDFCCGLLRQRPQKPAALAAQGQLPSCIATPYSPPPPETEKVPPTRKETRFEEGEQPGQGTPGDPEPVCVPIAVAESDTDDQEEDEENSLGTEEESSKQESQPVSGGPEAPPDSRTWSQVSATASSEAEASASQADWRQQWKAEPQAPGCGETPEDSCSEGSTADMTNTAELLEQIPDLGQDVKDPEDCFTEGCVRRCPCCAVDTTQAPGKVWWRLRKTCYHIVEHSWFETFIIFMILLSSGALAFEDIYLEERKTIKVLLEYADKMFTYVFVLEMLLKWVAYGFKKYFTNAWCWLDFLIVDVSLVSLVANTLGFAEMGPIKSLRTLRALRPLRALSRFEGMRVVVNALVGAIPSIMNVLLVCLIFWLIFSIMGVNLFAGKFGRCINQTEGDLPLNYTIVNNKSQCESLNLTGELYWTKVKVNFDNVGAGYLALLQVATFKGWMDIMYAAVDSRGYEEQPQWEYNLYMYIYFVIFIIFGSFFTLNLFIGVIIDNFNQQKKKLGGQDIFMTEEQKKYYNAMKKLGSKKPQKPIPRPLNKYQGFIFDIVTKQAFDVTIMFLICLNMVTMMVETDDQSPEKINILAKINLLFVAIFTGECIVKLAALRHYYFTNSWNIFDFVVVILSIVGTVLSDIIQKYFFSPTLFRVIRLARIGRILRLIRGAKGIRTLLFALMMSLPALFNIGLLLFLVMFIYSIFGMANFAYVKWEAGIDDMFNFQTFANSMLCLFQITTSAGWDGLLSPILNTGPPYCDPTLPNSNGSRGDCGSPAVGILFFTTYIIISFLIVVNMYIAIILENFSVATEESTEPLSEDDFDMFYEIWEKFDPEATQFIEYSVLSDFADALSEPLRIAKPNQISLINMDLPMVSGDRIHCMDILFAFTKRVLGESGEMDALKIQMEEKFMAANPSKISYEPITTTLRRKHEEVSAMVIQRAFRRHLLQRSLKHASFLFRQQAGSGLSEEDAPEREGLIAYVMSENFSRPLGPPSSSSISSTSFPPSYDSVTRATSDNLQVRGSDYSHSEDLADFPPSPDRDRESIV
TEST_SUMMARY: Sodium Influx Assay (Flux), NaV1.5
CONDITION_NOTES: read-out: Flux NaV1.5 IC50; Trex HEK293 cells, ANG2 dye; arithmetic mean
Counter-ions that a name gives are not always drawn.
log10 IC50 values by entry
The figures below represent log10 of IC50, where IC50 is stated in µM.

# COMPOUND, log10 IC50
records = [
    ("Cc1c(OC2CCN([C@H](C)c3ccccc3)CC2)cc(F)c(S(=O)(=O)Nc2cscn2)c1F [Example 282, 2,2,2-trifluoroacetate]", 1.38),
    ("O=S(=O)(Nc1nccs1)c1ccc(OC2CCN(Cc3cccc(Cl)c3)CC2)c(Cl)c1", 0.76),
    ("Cc1cc(S(=O)(=O)Nc2cscn2)c(F)cc1N(C)[C@H]1CCN(Cc2nc(C(C)C)cs2)C1", 1.23),
    ("O=S(=O)(Nc1cscn1)c1ccc(OC2CCN(Cc3cccc(C(F)F)c3)CC2)c(Cl)c1 [Example 232, formate]", 0.58),
    ("Cc1cc(S(=O)(=O)Nc2cscn2)c(F)cc1N(C)[C@H]1CCN(Cc2nc3ccccc3s2)C1", 0.93),
]

Jot down log10 IC50 (NaV1.5 (Homo sapiens (Human))) of C[C@H]1C[C@@H](Oc2ccc(S(=O)(=O)Nc3nccs3)cc2Cl)CCN1Cc1ccccc1 (relative stereo) . 1.13

Enter recorded log10 IC50 with NaV1.5 (Homo sapiens (Human)) for O=S(=O)(Nc1nccs1)c1ccc(OC2CCN(Cc3ccccc3)CC2)c(Cl)c1 [Example 95, 2,2,2-trifluoroacetate] here. 1.32

Report measured log10 IC50 on NaV1.5 (Homo sapiens (Human)); entry: `CN(c1cc(F)c(S(=O)(=O)Nc2cscn2)cc1Cl)[C@H]1CCN(Cc2cccc(Cl)c2)C1` 0.76

State measured log10 IC50 of the compound `Cc1cc(S(=O)(=O)Nc2cscn2)c(F)cc1N(C)[C@H]1CCN(Cc2csc(-c3ccccc3)n2)C1` with NaV1.5 (Homo sapiens (Human)). 0.22

Quote log10 IC50 with test system NaV1.5 (Homo sapiens (Human)) for `Cc1cccc(C)c1CN1CC[C@H](N(C)c2cc(F)c(S(=O)(=O)Nc3cscn3)cc2Cl)C1` 0.83

Report log10 IC50 from NaV1.5 (Homo sapiens (Human)) testing of `O=S(=O)(Nc1nccs1)c1ccc(OC2CCN(CCc3ccccc3)CC2)c(Cl)c1` 1.32
